Test: Evaluation of stability in liver microsome
Settings: mouse liver microsome 0.25 mg/mL, 1 μM test compound, 37° C. for 30 minutes
measurementType: Remaining (%)

1. CCOc1c(C(=O)Nc2ccc(-c3ccco3)cc2)c2c(N)ncnc2n1C1(C)CC1 ... 55
2. COCc1ccc(NC(=O)c2cn(C(C)(C)C)c3ncnc(N)c23)cc1F ... 54
3. COCc1ccc(NC(=O)c2c(C#Cc3c(C)noc3C)n(C3(C)CC3)c3ncnc(N)c23)cc1 ... 58
4. COCc1ccc(NC(=O)c2cn(C(C)(C)C)c3ncnc(N)c23)c(OC)c1 ... 57
5. COCc1ccc(NC(=O)c2c(C#CC3CCN(C)CC3)n(C3(C)CC3)c3ncnc(N)c23)cc1 ... 77
6. CCn1nccc1C#Cc1c(C(=O)Nc2ccc(COC)cc2)c2c(N)ncnc2n1C1(C)CC1 ... 55
7. COCc1ccc(NC(=O)c2c(C3=CCOCC3)n(C3(C)CC3)c3ncnc(N)c23)cc1 ... 68
8. COCc1ccc(NC(=O)c2c(C#Cc3ccc(OC)cc3)n(C3(C)CC3)c3ncnc(N)c23)cc1 ... 90
9. COCc1ccc(NC(=O)c2c(C#Cc3cnc4[nH]ccc4c3)n(C3(C)CC3)c3ncnc(N)c23)cc1 ... 82
10. COCc1ccc(NC(=O)c2c(C#CCC3NC(=O)NC3=O)n(C3(C)CC3)c3ncnc(N)c23)cc1 (stereo not shown) ... 67
11. COCc1ccc(NC(=O)c2c(C#Cc3cnn(C(C)C)c3)n(C3(C)CC3)c3ncnc(N)c23)cc1 ... 79
12. COCc1ccc(NC(=O)c2c(C#Cc3cnc[nH]3)n(C3(C)CC3)c3ncnc(N)c23)cc1 ... 53
13. COCc1ccc(NC(=O)c2c(C#Cc3cncs3)n(C3(C)CC3)c3ncnc(N)c23)cc1 ... 51
14. COCc1ccc(NC(=O)c2c(OC)n(C3(C)CC3)c3ncnc(N)c23)cc1 ... 86
15. CCn1cc(C#Cc2c(C(=O)Nc3ccc(COC)cc3)c3c(N)ncnc3n2C2(C)CC2)cn1 ... 73
16. COCc1ccc(NC(=O)c2c(C#CCC3(O)CCOCC3)n(C3(C)CC3)c3ncnc(N)c23)cc1 ... 68
